target: human S1P5 receptor (Homo sapiens); construct: expressed in transfected cells; host or cells: HEK293T, transient transfection; membranes; assay: [γ-35S]GTP binding assay, HEK293T membranes; format: biochemical; conditions: -log molar concentration giving 50% of maximal [γ-35S]GTP binding; ± S.E.M.; read-out: pEC50 S1P5 (converted)
Sequence (Q9H228 whole entry): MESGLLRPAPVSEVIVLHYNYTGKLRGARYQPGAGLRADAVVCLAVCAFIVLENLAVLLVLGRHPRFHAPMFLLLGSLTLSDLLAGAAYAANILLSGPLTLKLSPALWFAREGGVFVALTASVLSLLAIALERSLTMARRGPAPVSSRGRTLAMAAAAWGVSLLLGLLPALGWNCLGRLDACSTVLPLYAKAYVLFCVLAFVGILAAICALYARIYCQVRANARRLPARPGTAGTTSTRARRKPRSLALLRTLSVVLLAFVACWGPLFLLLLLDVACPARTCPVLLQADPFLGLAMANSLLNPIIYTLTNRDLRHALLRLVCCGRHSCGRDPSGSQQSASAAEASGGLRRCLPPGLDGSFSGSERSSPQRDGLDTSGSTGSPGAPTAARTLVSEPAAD
Quick reference for EC50 among some molecules
Lab book: enter the figure in nM, no units written.

COMPOUND_STRUCTURE_STRING	EC50, nM
CCCCCCCc1cccc(NC(=O)[C@H](N)COP(=O)(O)O)c1	11.5

// query Look at this molecule and give its reported EC50. CCCCCCc1cccc(NC(=O)[C@H](N)COP(=O)(O)O)c1
// result 135
